Counter-ions that a name gives are not always drawn.
Property: melting point; scope: individual compounds

c1ccc(Nc2cnc3cc(O[C@@H]4CCOC4)ccc3n2)cc1 [Example 9]    173 to 175 °C
CC(C)Oc1ccc2nc(Nc3ccccc3)cnc2c1.Cl    205 to 210 °C (dec.)
Oc1ccc2nc(Nc3ccccc3)cnc2c1 [Example 8, 2-Anilino-6-quinoxalinol]    211 to 213 °C
COc1cc2cc(NCC(C)(C)CO)cnc2cc1OC [Example 13]    170 to 173.5 °C
COc1cc2ncc(NC3CCCCC3)nc2cc1N1CCOCC1 [Example 14]    194 to 196 °C
COc1cc2ncc(OC3CCCCC3)nc2cc1OC1CCCCC1 [Example 10]    75 to 78 °C

Briefly, melting point measured for COc1cc2ncc(CNC3CCCCC3)nc2cc1OC (as salt: HCl) [Example 11] : 185 to 190 °C (dec.)

The reported melting point of the compound COc1cc2ncc(N[C@@H]3C[C@H]4CC[C@@H]3C4)nc2cc1OC [Example 22] was 184 to 186 °C

The reported melting point of the compound COc1cc2ncc(NC3CCCCC3)nc2cc1OC [Example 3] was 188 to 189.5 °C
